meta.source: patent US6410792B1

target: UniProt:P49146; experiment: Y2 receptor binding assay ([125I]PYY, membrane protein); settings: read-out: hNPY2 IC50
Sequence (P49146 whole entry): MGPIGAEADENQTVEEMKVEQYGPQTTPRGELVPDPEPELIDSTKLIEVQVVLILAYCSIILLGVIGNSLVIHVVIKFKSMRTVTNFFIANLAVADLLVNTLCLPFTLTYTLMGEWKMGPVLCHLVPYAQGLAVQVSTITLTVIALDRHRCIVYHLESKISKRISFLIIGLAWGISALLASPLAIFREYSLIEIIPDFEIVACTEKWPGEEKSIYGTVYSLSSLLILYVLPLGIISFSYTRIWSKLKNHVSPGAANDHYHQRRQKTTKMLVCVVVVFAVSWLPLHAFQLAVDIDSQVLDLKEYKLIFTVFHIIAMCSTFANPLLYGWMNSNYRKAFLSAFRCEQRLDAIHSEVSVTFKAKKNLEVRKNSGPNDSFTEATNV
pIC50: −log10 of the molar value.
readout type: pIC50

smiles	endpoint value
CCCC(=O)C1(c2ccccc2)CCN(CC(=O)Nc2ccc(C3CCCCC3)cc2)CC1	< 5.30
N#CC1(c2ccccc2)CCN(CC(=O)Nc2ccc(C(=O)c3ccccc3)cc2)CC1	< 5.30

---

Molecular target: UniProtKB Q15761
Sequence (Q15761 1-445): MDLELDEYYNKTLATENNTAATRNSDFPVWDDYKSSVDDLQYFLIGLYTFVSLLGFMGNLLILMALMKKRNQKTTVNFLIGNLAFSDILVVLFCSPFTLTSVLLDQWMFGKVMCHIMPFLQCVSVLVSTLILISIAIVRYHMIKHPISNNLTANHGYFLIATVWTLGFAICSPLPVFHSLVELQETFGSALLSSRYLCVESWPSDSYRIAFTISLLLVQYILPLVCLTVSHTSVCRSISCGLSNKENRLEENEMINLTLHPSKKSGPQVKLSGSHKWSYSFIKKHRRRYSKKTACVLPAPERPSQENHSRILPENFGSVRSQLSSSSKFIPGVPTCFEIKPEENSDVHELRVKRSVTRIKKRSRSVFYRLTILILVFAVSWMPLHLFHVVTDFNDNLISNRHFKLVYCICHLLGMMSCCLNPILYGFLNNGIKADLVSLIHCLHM
Experiment: Human NPY5 receptor binding assay ([125I]PYY, membrane protein)
Details: [125I]PYY, read-out: hNPY5 IC50
Structures can show the parent of a compound that is named as a salt.

compound	tested on	unit annotation	IC50
O=C(CN1CCC(n2c(=O)[nH]c3ccccc32)CC1)Nc1cccc2ccc(O)cc12 [Compound 340, reference compound]	UniProtKB Q15761	nM	227
Cl.O=C(CN1CCC(n2c(=O)[nH]c3ccccc32)CC1)Nc1ccc2oc3ccccc3c2c1 [Compound 310, hydrochloride]	UniProtKB Q15761	nM	34
Cc1ccc(OC(=O)c2ccc(NC(=O)CN3CCC(n4c(=O)[nH]c5ccccc54)CC3)cc2)cc1 [Compound 264, hydrochloride]	UniProtKB Q15761	nM	180
O=C(CN1CCC(n2c(=O)[nH]c3ccccc32)CC1)Nc1ccc2c(c1)Cc1ccccc1-2	UniProtKB Q15761	nM	6
CCCCCc1ccc(NC(=O)CN2CCC(n3c(=O)[nH]c4ccccc43)CC2)cc1	UniProtKB Q15761	nM	74
Cl.O=C(CN1CCC(n2c(=O)[nH]c3ccccc32)CC1)Nc1ccc2c(c1)-c1ccccc1C2=O [Compound 311, hydrochloride]	UniProtKB Q15761	nM	0.47
O=C(CN1CCC(n2c(=O)[nH]c3ccccc32)CC1)Nc1ccc(C(F)(F)F)cc1 [Compound 356, reference compound]	UniProtKB Q15761	nM	259
O=C(CN1CCCCC1)Nc1ccc(C2CCCCC2)cc1	UniProtKB Q15761	nM	940
O=C(CN1CCC(n2c(=O)[nH]c3ccccc32)CC1)Nc1cccc2c1-c1ccccc1C2=O	UniProtKB Q15761	nM	360
O=C(CN1CCC(n2c(=O)[nH]c3ccccc32)CC1)Nc1ccc2cn[nH]c2c1 [Compound 344, reference compound]	UniProtKB Q15761	nM	2700
CC(=O)Nc1ccc(NC(=O)CN2CCC(n3c(=O)[nH]c4ccccc43)CC2)cc1 [Compound 351, reference compound]	UniProtKB Q15761	nM	580
Nc1cc(S(=O)(=O)c2ccccc2)ccc1NC(=O)CN1CCC(n2c(=O)[nH]c3ccccc32)CC1 [Compound 335, reference compound]	UniProtKB Q15761	nM	110
CCNC1(C(N)=O)CCN(CC(=O)Nc2ccc(C3CCCCC3)cc2)CC1.O=C(O)C(=O)O	UniProtKB Q15761	nM	6
Cl.O=C(CN1CCC(n2c(=O)[nH]c3ccccc32)CC1)Nc1ccc(-c2ccc(F)cc2)cc1 [Compound 327, hydrochloride]	UniProtKB Q15761	nM	110
O=C(CN1CCC(n2c(=O)[nH]c3ccccc32)CC1)Nc1ccc(-c2ccccc2)cc1	UniProtKB Q15761	nM	42
